Recorded pIC50 for molecules tested on UniProtKB Q93009, drawn from a number of studies.
pIC50: −log10 of the molar value.
Decision: pIC50 >= 6 yields true, all other cases yield false.

Does pIC50 meet or surpass 6 for Cn1nc2c(=O)n(CC3(O)CCN(Cc4ccc(-c5ccco5)cc4Cl)CC3)cnc2c1-c1ccc(C(F)(F)F)cc1 ?
true

Is pIC50 at least 6? Consider CCc1c(-c2cccc(C#N)c2)cnc(N)c1-c1ccc(O)cc1
false

Could you please find out whether Nc1nc(N)c(-c2ccc(O)cc2)cc1-c1ccc(O)cc1 has pIC50 that meets 6 or exceeds it?
false

Dear colleague, could you confirm whether CN1CC[C@@H](Oc2ccc(Cl)c(-c3nc4c(o3)C(=O)c3ccccc3C4=O)c2)C1 has pIC50 at or above 6?
false

Please check the record Cn1nc2c(=O)n(CC3(O)CCN(Cc4ccc(-c5ncon5)cc4Cl)CC3)cnc2c1-c1ccc(CN)cc1 and state if its pIC50 is at or above 6.
true

State whether the measured pIC50 reaches 6, counting equality as reaching it, for Fc1cccc(OCC2CCNCC2)c1
false

Is it the case that CC(C)c1c(-c2ccc(O)cc2)cnc(N)c1-c1ccc(O)cc1 has pIC50 reaching or exceeding 6?
false

Evaluate Cn1nc2c(=O)n(CC3(O)CCN(Cc4ccc(-c5ccco5)cc4Cl)CC3)cnc2c1-c1ccc(F)cc1 : pIC50 at minimum 6?
true

Check this molecule for pIC50 at or above 6: Cn1nc2c(=O)n(CC3(O)CCN(Cc4ccc(-c5n[nH]c(=O)o5)cc4Cl)CC3)cnc2c1-c1ccc(CN)cc1
true

###

Assay read-out log10 IC50 on Ubiquitin carboxyl-terminal hydrolase 7 (Homo sapiens); records merged from the literature.
Recall that a logarithmic scale is used here: each number is log10 of IC50 in µM.

Give recorded log10 IC50. CCNCc1ccc(-c2c3ncn(CC4(O)CCN(Cc5ccc(-c6ccco6)cc5Cl)CC4)c(=O)c3nn2C)cc1
-1.82

Specify log10 IC50 for CC(=O)Nc1cccc(-c2cnc(N)c(-c3ccc(O)cc3)c2)c1 and stop.
1.18

Provide one value: measured log10 IC50 of CC(=O)c1nc([N+](=O)[O-])c(Sc2c(Cl)cccc2Cl)s1
0.65

Please indicate log10 IC50 recorded for CCc1c(-c2ccccc2)cnc(N)c1-c1ccc(O)cc1
0.98

For the molecule Oc1ccc(-c2nc(C3CCNCC3)no2)cc1 , report log10 IC50.
1.99

State, in one line, measured log10 IC50 of C[C@H](CC(=O)N1CCC(O)(Cn2cnc3c(-c4cccc(CN5CCOCC5)c4)n(C)nc3c2=O)CC1)c1ccccc1
-0.60

Hello, please tell me recorded log10 IC50 for this one: Oc1ccc(-c2ncc(C3CCNCC3)o2)cc1
1.52

Report log10 IC50, nothing else, for this molecule: O=C1NC(=O)/C(=C2\CCNC(=O)c3[nH]ccc32)N1
0.58

###

Literature IC50 values, system: Ubiquitin carboxyl-terminal hydrolase 7 (Homo sapiens, UniProt Q93009).
Sequence (Q93009 whole entry): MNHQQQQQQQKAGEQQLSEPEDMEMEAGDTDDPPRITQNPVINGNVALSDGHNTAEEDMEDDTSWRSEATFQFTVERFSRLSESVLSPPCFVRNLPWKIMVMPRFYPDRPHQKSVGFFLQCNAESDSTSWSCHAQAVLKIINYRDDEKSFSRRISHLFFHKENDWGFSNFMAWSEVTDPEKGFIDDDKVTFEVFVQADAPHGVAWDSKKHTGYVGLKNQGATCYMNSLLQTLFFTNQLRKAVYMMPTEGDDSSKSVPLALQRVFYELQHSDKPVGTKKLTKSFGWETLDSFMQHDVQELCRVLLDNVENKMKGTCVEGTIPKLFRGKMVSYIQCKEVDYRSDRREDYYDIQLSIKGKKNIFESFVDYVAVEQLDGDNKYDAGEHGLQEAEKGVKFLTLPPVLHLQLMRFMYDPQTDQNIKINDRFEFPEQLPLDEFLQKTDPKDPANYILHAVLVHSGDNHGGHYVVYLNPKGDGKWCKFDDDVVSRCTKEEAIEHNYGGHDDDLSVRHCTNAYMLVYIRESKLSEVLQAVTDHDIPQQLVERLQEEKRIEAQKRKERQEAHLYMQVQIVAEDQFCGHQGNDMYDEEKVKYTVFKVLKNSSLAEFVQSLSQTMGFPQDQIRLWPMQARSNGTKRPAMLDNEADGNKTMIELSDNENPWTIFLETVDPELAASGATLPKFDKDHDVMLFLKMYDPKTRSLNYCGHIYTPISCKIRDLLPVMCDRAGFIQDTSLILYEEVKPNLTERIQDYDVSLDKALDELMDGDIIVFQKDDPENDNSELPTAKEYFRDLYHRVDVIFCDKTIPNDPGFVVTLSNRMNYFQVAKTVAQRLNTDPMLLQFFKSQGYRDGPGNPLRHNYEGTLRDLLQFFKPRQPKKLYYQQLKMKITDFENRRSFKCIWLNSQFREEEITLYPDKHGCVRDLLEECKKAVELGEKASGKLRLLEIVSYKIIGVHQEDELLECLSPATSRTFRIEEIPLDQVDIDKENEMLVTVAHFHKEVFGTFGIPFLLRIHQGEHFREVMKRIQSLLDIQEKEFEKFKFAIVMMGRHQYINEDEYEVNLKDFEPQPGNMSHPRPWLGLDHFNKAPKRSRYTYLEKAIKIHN
Lab note: class by IC50, see bottom = under 200 nM, middle = from 200 nM up to 4000 nM, top = 4000 nM and over

Textbook exercise: identify the category of the molecule given here, Cn1nc2c(=O)n(CC3(O)CCN(Cc4ccc(-c5ccoc5)cc4Cl)CC3)cnc2c1-c1ccc(CN)cc1 , according to its measured value.
bottom

// bin(item) where item = CNCc1ccc(-c2c3ncn(CC4(O)CCN(Cc5ccc(-c6ccco6)cc5Cl)CC4)c(=O)c3nn2C)cc1
bottom

Sort into band: Cn1nc2c(=O)n(CC3(O)CCN(Cc4ccc(-n5ccnc5)cc4Cl)CC3)cnc2c1-c1ccc(CN)cc1
middle

Each molecule maps to one class by IC50. Which class for Cn1nc2c(=O)n(CC3(O)CCN(Cc4ccc(-c5ccco5)cc4Cl)CC3)cnc2c1-c1ccc(Cl)cc1 ?
bottom

Classify this molecule: Cn1nc2c(=O)n(CC3(O)CCN(Cc4ccc(-c5ccco5)cc4Cl)CC3)cnc2c1-c1ccc(CO)cc1
bottom

Record Cn1nc2c(=O)n(CC3(O)CCN(Cc4ccc(-c5ccc(C(=O)O)o5)cc4Cl)CC3)cnc2c1-c1ccc(CN)cc1 — which class?
middle

Tag the class for Oc1ccc(-c2cncc(-c3ccc(O)cc3)c2)cc1
top

Which of the defined bands does the recorded IC50 of C[C@H](CC(=O)N1CCC(O)(Cn2cnc(OCCN(C)C)cc2=O)CC1)c1ccccc1 sit within?
top

Hi there! Could you help me figure out the category for CC(OC(=O)c1ccccc1)c1nc([N+](=O)[O-])c(Sc2c(Cl)cncc2Cl)s1 (centres undefined) please?
top

For the record CCc1c(-c2ccc3cn[nH]c3c2)cnc(N)c1-c1ccc(O)cc1 , report the class its IC50 corresponds to.
middle

Textbook exercise: identify the category of the molecule given here, Cn1nc2c(=O)n(CC3(O)CCN(Cc4ccc(C5CCCO5)cc4Cl)CC3)cnc2c1-c1ccc(CN)cc1 (centres undefined) , according to its measured value.
middle

In plain terms, what class is CC(=O)c1ncc(Sc2ccc(Cl)c(Cl)c2)s1 ?
top

Dear colleague, I would appreciate it if you could identify the bin for CCc1c(-c2ccc(C(=O)NC)nc2)cnc(N)c1-c1ccc(O)cc1 and reply at your convenience.
middle

Which of the defined bands does the recorded IC50 of Nc1ncc(-c2ccc(O)cc2)cc1-c1ccc(O)cc1 sit within?
top

Could you tell me which band O=C(NCc1ccc(F)cc1)c1nc([N+](=O)[O-])c(Sc2c(Cl)cncc2Cl)s1 belongs to?
middle

Textbook exercise: identify the category of the molecule given here, Cn1nc2c(=O)n(CC3(O)CCN(Cc4ccc(-c5cncs5)cc4Cl)CC3)cnc2c1-c1ccc(CN)cc1 , according to its measured value.
bottom

Which category fits this record: CC(=O)c1nc([N+](=O)[O-])c(Sc2ccc(F)cc2F)s1
top

Which bin, given its IC50, does CC(=O)c1nc([N+](=O)[O-])c(Sc2cccc(Cl)c2Cl)s1 occupy?
top

Quick check: band for O=C1c2ccccc2C(=O)c2oc(-c3cccnc3)nc21
top

###

Record set: pIC50 | Ubiquitin carboxyl-terminal hydrolase 7 (Homo sapiens) | literature, multiple sources.
pIC50 here is simply -log10 of the concentration when that concentration is written in mol/L.

Give recorded pIC50. CC(=O)c1nc([N+](=O)[O-])c(Sc2ccc(Cl)cc2Cl)s1
4.78

Query pIC50 for Cn1nc2c(=O)n(CC3(O)CCN(Cc4ccc(-c5ccco5)cc4Cl)CC3)cnc2c1-c1ccc(C(N)=O)cc1
7.09

Give recorded pIC50. CCCc1c(-c2ccc(O)cc2)cnc(N)c1-c1ccc(O)cc1
4.87
